MEASURED TARGET: Human recombinant TRPV1 (Homo sapiens, UniProt Q8NER1)
Construct: expressed in transfected cells; host or cells: HEK293 (TRPV1-HEK-293, gift from John Davis, GlaxoSmithKline)
Sequence (Q8NER1 whole entry): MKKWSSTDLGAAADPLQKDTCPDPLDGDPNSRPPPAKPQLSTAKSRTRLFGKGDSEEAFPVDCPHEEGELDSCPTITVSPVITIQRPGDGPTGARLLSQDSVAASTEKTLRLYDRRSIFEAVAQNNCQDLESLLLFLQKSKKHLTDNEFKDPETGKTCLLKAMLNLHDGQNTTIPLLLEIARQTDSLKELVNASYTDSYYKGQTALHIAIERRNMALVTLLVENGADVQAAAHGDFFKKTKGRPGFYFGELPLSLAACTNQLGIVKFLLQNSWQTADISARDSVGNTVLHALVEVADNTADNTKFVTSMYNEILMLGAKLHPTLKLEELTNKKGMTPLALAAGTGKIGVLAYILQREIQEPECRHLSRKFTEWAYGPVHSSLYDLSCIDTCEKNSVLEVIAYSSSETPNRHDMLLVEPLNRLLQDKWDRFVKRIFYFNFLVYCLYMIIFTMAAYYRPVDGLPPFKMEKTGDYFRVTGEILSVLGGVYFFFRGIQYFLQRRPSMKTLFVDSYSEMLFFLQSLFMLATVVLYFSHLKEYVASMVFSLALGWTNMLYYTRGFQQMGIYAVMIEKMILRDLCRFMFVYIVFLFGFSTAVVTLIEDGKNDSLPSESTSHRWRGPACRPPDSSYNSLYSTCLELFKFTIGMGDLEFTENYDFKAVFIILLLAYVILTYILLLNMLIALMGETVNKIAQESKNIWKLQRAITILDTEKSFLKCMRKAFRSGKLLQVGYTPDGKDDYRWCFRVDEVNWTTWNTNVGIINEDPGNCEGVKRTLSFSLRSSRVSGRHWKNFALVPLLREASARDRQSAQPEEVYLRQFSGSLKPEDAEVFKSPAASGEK
PROTOCOL DETAILS: cell-based
Type: cell-based
EXPERIMENTAL CONTEXT: read-out: TRPV1 IC50 for antagonism or desensitization

{"columns": ["COMPOUND", "IC50"],
 "data": [
  ["Cc1ccc2c(c1)Cc1c(C(=O)NN3CCCCC3)nn(-c3ccc(Cl)cc3Cl)c1-2", "3 µM"],
  ["CCCC(C)(C)c1ccc2c(c1)OC(C)(C)[C@@H]1CC=C(C)C[C@@H]21", "77.7 µM"],
  ["COc1ccc(C(=O)c2c(C)n(CCN3CCOCC3)c3cc(I)ccc23)cc1", "> 100 µM"],
  ["Cc1c(C(=O)c2cccc3ccccc23)c2cccc3c2n1[C@H](CN1CCOCC1)CO3", "35.8 µM"],
  ["CN1CCCC[C@H]1Cn1cc(C(=O)c2cc([N+](=O)[O-])ccc2I)c2ccccc21 [(S)-AM1241]", "> 50 µM"],
  ["CN1CCCC[C@@H]1Cn1cc(C(=O)c2cc([N+](=O)[O-])ccc2I)c2ccccc21 [(R)-AM1241]", "> 50 µM"],
  ["CCCCCCC(C)(C)c1cc(OC)c(C2=C[C@H]3CC[C@]2(CO)C3(C)C)c(OC)c1", "> 100 µM"]
]}

----------
Below, each of the compounds is paired with its reported RE β-AR value.
MEASURED TARGET: UniProt P34972
Set-up: expressed in transfected cells; host or cells: Flp-In-293 (Invitrogen #R750-07), pcDNA5/FRT
EXPERIMENTAL CONTEXT: hCB2R, relative effectiveness
OUTCOME MEASURE: RE β-AR

{"columns": ["COMPOUND", "REPORTED"],
 "data": [
  ["CCCCCCC(C)(C)c1cc(OC)c(C2=C[C@H]3CC[C@]2(CO)C3(C)C)c(OC)c1 [HU910]", 0.16],
  ["CN1CCCC[C@H]1Cn1cc(C(=O)c2cc([N+](=O)[O-])ccc2I)c2ccccc21 [(S)-AM1241]", 0.003],
  ["CCCCCCC(C)(C)c1cc(OC)c([C@@H]2C=C(CO)[C@@H]3C[C@H]2C3(C)C)c(OC)c1 [HU308]", 0.17],
  ["CN1CCCC[C@@H]1Cn1cc(C(=O)c2cc([N+](=O)[O-])ccc2I)c2ccccc21 [(R)-AM1241]", 0.05],
  ["CN1CCCCC1Cn1cc(C(=O)c2cc([N+](=O)[O-])ccc2I)c2ccccc21 (racemic) [(rac)-AM1241]", 0.28],
  ["CCCCC/C=C\\C/C=C\\C/C=C\\C/C=C\\CCCC(=O)OC(CO)CO [2-AG, 2-arachidonoyl glycerol]", 0.003],
  ["CCCCC/C=C\\C/C=C\\C/C=C\\C/C=C\\CCCC(=O)NCCO [Anandamide, N-arachidonoylethanolamine]", 0.001]
]}

----------
MEASURED TARGET: hCB2R (Homo sapiens)
Sequence (P34972 whole entry): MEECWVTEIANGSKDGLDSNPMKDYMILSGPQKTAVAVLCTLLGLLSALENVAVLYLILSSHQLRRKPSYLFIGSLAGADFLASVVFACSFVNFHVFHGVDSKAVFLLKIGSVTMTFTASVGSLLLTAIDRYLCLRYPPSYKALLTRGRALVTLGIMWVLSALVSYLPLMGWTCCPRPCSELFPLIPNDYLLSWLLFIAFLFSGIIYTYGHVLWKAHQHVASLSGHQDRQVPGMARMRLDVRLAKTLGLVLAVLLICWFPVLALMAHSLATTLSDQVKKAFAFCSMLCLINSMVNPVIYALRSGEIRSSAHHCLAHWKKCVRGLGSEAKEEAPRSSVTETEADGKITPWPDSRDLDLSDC
Set-up: expressed in transfected cells; host or cells: Flp-In-293 (Invitrogen #R750-07), pcDNA5/FRT
EXPERIMENTAL CONTEXT: hCB2R, relative effectiveness
Below, each of the molecules is paired with its reported RE GTPγS value.

{"columns": ["MOLECULE", "RE GTPγS"],
 "data": [
  ["CN1CCCC[C@@H]1Cn1cc(C(=O)c2cc([N+](=O)[O-])ccc2I)c2ccccc21 [(R)-AM1241]", 0.10],
  ["CCCCC/C=C\\C/C=C\\C/C=C\\C/C=C\\CCCC(=O)OC(CO)CO [2-AG, 2-arachidonoyl glycerol]", 0.0002],
  ["CCCCCCC(C)(C)c1cc(OC)c([C@@H]2C=C(CO)[C@@H]3C[C@H]2C3(C)C)c(OC)c1 [HU308]", 0.05]
]}
